test: HOSU-53 plasma exposure in MOLM-13 tumor-bearing mice; assay type: in vivo, NCG mice; conditions: male, NCG, mouse, plasma, po, 10 mg/kg, Day 14; 10 mpk PO, male mice; per mouse; read-out: HOSU-53 AUCall

[
  {
    "structure_string": "CCCCOc1cccc(-c2ccc(-c3cc(C(=O)O)c4cc(F)ccc4n3)cc2)c1",
    "unit_info": "µM·h",
    "AUC": 3860
  }
]

====

molecular target: HSA (Homo sapiens); test: Protein binding, HSA; type: in vitro ADME; details: 4% HSA
Sequence (P02768 25-609): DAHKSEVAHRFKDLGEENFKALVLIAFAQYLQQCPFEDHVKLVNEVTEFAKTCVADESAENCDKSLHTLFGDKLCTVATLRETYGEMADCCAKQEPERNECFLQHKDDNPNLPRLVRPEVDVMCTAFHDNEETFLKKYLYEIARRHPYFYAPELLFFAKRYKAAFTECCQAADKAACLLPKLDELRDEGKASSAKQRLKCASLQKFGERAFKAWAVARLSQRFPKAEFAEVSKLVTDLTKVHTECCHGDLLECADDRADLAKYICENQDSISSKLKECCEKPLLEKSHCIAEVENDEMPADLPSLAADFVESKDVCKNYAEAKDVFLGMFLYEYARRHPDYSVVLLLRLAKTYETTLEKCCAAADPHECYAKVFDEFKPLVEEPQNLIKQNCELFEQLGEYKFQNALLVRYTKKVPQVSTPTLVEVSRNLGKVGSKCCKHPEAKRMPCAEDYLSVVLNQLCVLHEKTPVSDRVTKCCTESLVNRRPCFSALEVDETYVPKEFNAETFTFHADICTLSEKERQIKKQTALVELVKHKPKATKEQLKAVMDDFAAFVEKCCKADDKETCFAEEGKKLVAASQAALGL

[
  {
    "compound": "CCCCOc1cccc(-c2ccc(-c3cc(C(=O)O)c4cc(F)ccc4n3)cc2)c1 [HOSU-53]",
    "fraction unbound": "< 0.01"
  }
]

====

biological target: CYP 3A4 (Homo sapiens); test: CYP inhibition 3A4; assay type: in vitro ADME; settings: substrate testosterone; read-out: CYP inhibition IC50 3A4 (testosterone)
Sequence (P08684 whole entry): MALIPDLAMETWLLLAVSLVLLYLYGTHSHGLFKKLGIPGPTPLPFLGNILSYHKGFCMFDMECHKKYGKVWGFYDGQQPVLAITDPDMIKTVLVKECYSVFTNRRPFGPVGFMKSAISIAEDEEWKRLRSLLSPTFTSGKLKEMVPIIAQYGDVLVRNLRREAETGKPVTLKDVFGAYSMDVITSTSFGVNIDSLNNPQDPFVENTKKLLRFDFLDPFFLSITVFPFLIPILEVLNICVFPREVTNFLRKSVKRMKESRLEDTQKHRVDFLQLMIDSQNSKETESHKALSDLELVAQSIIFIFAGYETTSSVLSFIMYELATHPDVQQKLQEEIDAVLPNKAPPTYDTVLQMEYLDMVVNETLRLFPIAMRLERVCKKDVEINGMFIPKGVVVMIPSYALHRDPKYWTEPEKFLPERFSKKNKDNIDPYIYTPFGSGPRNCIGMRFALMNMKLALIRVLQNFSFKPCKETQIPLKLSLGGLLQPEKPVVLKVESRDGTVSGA
pIC50: −log10 of the molar value.

[
  {
    "structure_string": "CCCCOc1cccc(-c2ccc(-c3cc(C(=O)O)c4cc(F)ccc4n3)cc2)c1",
    "pIC50": 4.65
  }
]

====

assay: In vivo p.o. PK in rat; conditions: po, read-out: in vivo p.o. bioavailability (F)

[
  {
    "structure_string": "CCCCOc1cccc(-c2ccc(-c3cc(C(=O)O)c4cc(F)ccc4n3)cc2)c1",
    "bioavailability [%]": 59
  }
]

====

assay: Single-dose HOSU-53 PK in mice; assay type: in vivo, male C57BL/6 mice; conditions: male, C57BL/6, mouse, plasma, oral, 10 mg/kg, 10 mpk PO; 72 h postdose; per mouse

[
  {
    "compound": "CCCCOc1cccc(-c2ccc(-c3cc(C(=O)O)c4cc(F)ccc4n3)cc2)c1 [HOSU-53]",
    "concentration at 72 h": "43.8 µM"
  }
]

====

experiment: HOSU-53 plasma exposure in MOLM-13 tumor-bearing mice; format: in vivo, NCG mice; conditions: male, NCG, mouse, plasma, po, 10 mg/kg, Day 1; 10 mpk PO, male mice; per mouse; read-out: HOSU-53 AUCall
measured_attribute: AUC

[
  {
    "structure_string": "CCCCOc1cccc(-c2ccc(-c3cc(C(=O)O)c4cc(F)ccc4n3)cc2)c1",
    "result": "1890 µM·h"
  }
]

====

test: HOSU-53 plasma exposure in MOLM-13 tumor-bearing mice; format: in vivo, NCG mice; settings: male, NCG, mouse, plasma, po, 4 mg/kg, Day 1; 4 mpk PO, male mice; per mouse; read-out: HOSU-53 AUCall
measured_attribute: AUC

[
  {
    "structure_string": "CCCCOc1cccc(-c2ccc(-c3cc(C(=O)O)c4cc(F)ccc4n3)cc2)c1",
    "result": "780 µM·h"
  }
]

====

molecular target: CYP 2C8 (Homo sapiens, UniProt P10632)
Sequence (P10632 whole entry): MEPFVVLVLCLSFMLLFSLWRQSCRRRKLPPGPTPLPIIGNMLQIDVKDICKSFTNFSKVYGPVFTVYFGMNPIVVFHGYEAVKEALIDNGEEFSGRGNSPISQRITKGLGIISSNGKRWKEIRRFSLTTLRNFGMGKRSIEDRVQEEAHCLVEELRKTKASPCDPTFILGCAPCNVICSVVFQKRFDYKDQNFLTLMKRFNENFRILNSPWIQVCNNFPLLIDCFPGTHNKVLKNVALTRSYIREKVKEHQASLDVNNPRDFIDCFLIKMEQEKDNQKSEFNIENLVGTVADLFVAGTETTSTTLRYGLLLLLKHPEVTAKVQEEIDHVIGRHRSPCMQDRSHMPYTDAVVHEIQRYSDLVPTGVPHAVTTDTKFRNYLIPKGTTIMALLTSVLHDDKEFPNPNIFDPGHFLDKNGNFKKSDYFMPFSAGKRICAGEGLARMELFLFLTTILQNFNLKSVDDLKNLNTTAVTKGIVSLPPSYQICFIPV

[
  {
    "structure_string": "CCCCOc1cccc(-c2ccc(-c3cc(C(=O)O)c4cc(F)ccc4n3)cc2)c1",
    "unit_info": "nM",
    "IC50": 1820
  }
]

====

experiment: Single-dose HOSU-53 PK in mice; type: in vivo, male C57BL/6 mice; settings: male, C57BL/6, mouse, plasma, oral, 10 mg/kg, 10 mpk PO; 4 h postdose; per mouse

[
  {
    "structure_string": "CCCCOc1cccc(-c2ccc(-c3cc(C(=O)O)c4cc(F)ccc4n3)cc2)c1",
    "concentration at 4 h, µM": 218
  }
]
